# Cond: 313.15 K; Liquid; Closed cell (Static) method
Property measured: vapor or sublimation pressure (kPa)
Number in kPa, nothing else.

Ask | Find the recorded vapor or sublimation pressure belonging to CCCO and report it.
Reply | 7.197

Ask | Find the recorded vapor or sublimation pressure belonging to CCO and report it.
Reply | 17.98

Ask | Find the recorded vapor or sublimation pressure belonging to CO and report it.
Reply | 35.51

Ask | Find the recorded vapor or sublimation pressure belonging to CC(C)O and report it.
Reply | 13.94

Ask | Find the recorded vapor or sublimation pressure belonging to CCCCO and report it.
Reply | 2.544

Ask | Find the recorded vapor or sublimation pressure belonging to CCC(C)O (stereo unspecified) and report it.
Reply | 6.234

---

# Cond: 333.15 K; Liquid; Closed cell (Static) method
Assign t whenever vapor or sublimation pressure does not fall below 20 kPa; assign f whenever it does.

Ask | Exam item: decide whether the reported vapor or sublimation pressure for CCCCO is at least 20 kPa.
Reply | f

Ask | Exam item: decide whether the reported vapor or sublimation pressure for CO is at least 20 kPa.
Reply | t

Ask | Exam item: decide whether the reported vapor or sublimation pressure for CCC(C)O (stereo unspecified) is at least 20 kPa.
Reply | f

Ask | Exam item: decide whether the reported vapor or sublimation pressure for CCCO is at least 20 kPa.
Reply | t

Ask | Exam item: decide whether the reported vapor or sublimation pressure for CC(C)O is at least 20 kPa.
Reply | t

Ask | Exam item: decide whether the reported vapor or sublimation pressure for CCO is at least 20 kPa.
Reply | t

---

# Cond: 343.15 K; Liquid; Closed cell (Static) method
Numbers after ± are expanded uncertainties.
Property measured: vapor or sublimation pressure

Ask | Find the recorded vapor or sublimation pressure belonging to CCO [ethanol] and report it.
Reply | 72.24 ± 0.18 kPa

Ask | Find the recorded vapor or sublimation pressure belonging to CCCO [propan-1-ol] and report it.
Reply | 33.23 ± 0.086 kPa

Ask | Find the recorded vapor or sublimation pressure belonging to CCCCO [butan-1-ol] and report it.
Reply | 13.6 ± 0.2 kPa

Ask | Find the recorded vapor or sublimation pressure belonging to CCC(C)O (stereo not given) [butan-2-ol] and report it.
Reply | 29.71 ± 0.21 kPa

Ask | Find the recorded vapor or sublimation pressure belonging to CC(C)O [propan-2-ol] and report it.
Reply | 60.66 ± 0.22 kPa

---

# Cond: 353.15 K; Liquid; Closed cell (Static) method
Property measured: vapor or sublimation pressure (kPa)
Number in kPa, nothing else.

Ask | Find the recorded vapor or sublimation pressure belonging to CCC(C)O (centres undefined) and report it.
Reply | 46.36

Ask | Find the recorded vapor or sublimation pressure belonging to CCCO and report it.
Reply | 51.67

Ask | Find the recorded vapor or sublimation pressure belonging to CCCCO and report it.
Reply | 21.98

Ask | Find the recorded vapor or sublimation pressure belonging to CC(C)O and report it.
Reply | 92.44

---

# Cond: 323.15 K; Liquid; Closed cell (Static) method
Assign Satisfied whenever vapor or sublimation pressure does not fall below 10 kPa; assign Not satisfied whenever it does.

Ask | Exam item: decide whether the reported vapor or sublimation pressure for CO [methanol] is at least 10 kPa.
Reply | Satisfied

Ask | Exam item: decide whether the reported vapor or sublimation pressure for CCCCO [butan-1-ol] is at least 10 kPa.
Reply | Not satisfied

Ask | Exam item: decide whether the reported vapor or sublimation pressure for CCC(C)O (stereo unspecified) [butan-2-ol] is at least 10 kPa.
Reply | Satisfied

Ask | Exam item: decide whether the reported vapor or sublimation pressure for CCO [ethanol] is at least 10 kPa.
Reply | Satisfied

Ask | Exam item: decide whether the reported vapor or sublimation pressure for CC(C)O [propan-2-ol] is at least 10 kPa.
Reply | Satisfied

Ask | Exam item: decide whether the reported vapor or sublimation pressure for CCCO [propan-1-ol] is at least 10 kPa.
Reply | Satisfied

---

# Cond: 348.15 K; Liquid; Closed cell (Static) method
So basically, if vapor or sublimation pressure comes in under 80 kPa it's TRUE, and if it's 80 kPa or more it's FALSE.

Ask | Record CCCO : is its vapor or sublimation pressure strictly below 80 kPa?
Reply | TRUE

Ask | Record CCC(C)O (stereo not given) : is its vapor or sublimation pressure strictly below 80 kPa?
Reply | TRUE

Ask | Record CCCCO : is its vapor or sublimation pressure strictly below 80 kPa?
Reply | TRUE

Ask | Record CC(C)O : is its vapor or sublimation pressure strictly below 80 kPa?
Reply | TRUE

Ask | Record CCO : is its vapor or sublimation pressure strictly below 80 kPa?
Reply | FALSE

---

Field: vapor or sublimation pressure. Provide a value for each of the compounds that follow.
# Cond: 318.15 K; Liquid; Closed cell (Static) method
Number in kPa, nothing else.

Ask | Find the recorded vapor or sublimation pressure belonging to CO [methanol] and report it.
Reply | 44.59

Ask | Find the recorded vapor or sublimation pressure belonging to CCCO [propan-1-ol] and report it.
Reply | 9.568

Ask | Find the recorded vapor or sublimation pressure belonging to CC(C)O [propan-2-ol] and report it.
Reply | 18.24

Ask | Find the recorded vapor or sublimation pressure belonging to CCC(C)O (stereo unspecified) [butan-2-ol] and report it.
Reply | 8.252

Ask | Find the recorded vapor or sublimation pressure belonging to CCO [ethanol] and report it.
Reply | 23.17

Ask | Find the recorded vapor or sublimation pressure belonging to CCCCO [butan-1-ol] and report it.
Reply | 3.453

Recorded values, source the NIST ThermoML archive (doi:10.1021/je034197x).
